Target System: T1, TGR12-GFP (fused protein of human TGR12 and GFP, encoded by the DNA of SEQ ID NO: 31), stably expressed on … (human, UniProt Q96LB1 1-330)
T1 sequence: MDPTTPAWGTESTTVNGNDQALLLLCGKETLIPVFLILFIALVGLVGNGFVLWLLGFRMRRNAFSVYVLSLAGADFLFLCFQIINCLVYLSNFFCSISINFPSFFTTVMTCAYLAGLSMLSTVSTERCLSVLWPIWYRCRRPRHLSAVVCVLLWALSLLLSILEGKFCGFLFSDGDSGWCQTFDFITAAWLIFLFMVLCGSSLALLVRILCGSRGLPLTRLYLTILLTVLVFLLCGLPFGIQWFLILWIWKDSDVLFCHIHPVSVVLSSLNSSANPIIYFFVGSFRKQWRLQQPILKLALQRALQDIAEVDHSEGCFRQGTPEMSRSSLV
Assay Summary: cell-based or functional assay
Where no end group is shown, it is not given here.
Property Label: maximum activity in the calcium increasing effect (FLIPR), CHO-TGR12, at 30 nM (fluorescence intensity)
Note: unit fluorescence intensity is implicit; provide only the numeric part.

Completed entries (count: 3):
{"Binder": "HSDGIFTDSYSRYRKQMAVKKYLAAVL (peptide, UniProt P18509 132-158, looked up, not fully specified; ends and bridges not checked, domain: PACAP-27) [human PACAP27 (pituitary adenylate cyclase activating polypeptide 27)]", "Reported": 939}
{"Binder": "DRMPCRNFFWKTFSSCK (peptide, UniProt O00230 89-105, looked up, not fully specified; ends and bridges not checked) [human cortistatin-17]", "Reported": 94}
{"Binder": "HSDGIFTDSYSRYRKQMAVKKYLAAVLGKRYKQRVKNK (peptide, UniProt P18509 132-169, looked up, not fully specified; ends and bridges not checked, domain: PACAP-38) [human PACAP38 (pituitary adenylate cyclase activating polypeptide 38)]", "Reported": 195}

Consider the record given below.
### Prompt Which maximum activity in the calcium increasing effect (FLIPR), CHO-TGR12, at 30 nM value belongs to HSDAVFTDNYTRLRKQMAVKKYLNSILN (peptide, UniProt P01282 125-152, looked up, not fully specified; ends and bridges not checked, domain: VIP; also called vasoactive intestinal peptide) [human VIP (vasoactive intestinal polypeptide)] ?
### Response 16
